- target.entity: human NaPi-IIb (Homo sapiens, UniProt O95436)
- Construct: expressed in transfected cells
- Sequence (O95436 1-690): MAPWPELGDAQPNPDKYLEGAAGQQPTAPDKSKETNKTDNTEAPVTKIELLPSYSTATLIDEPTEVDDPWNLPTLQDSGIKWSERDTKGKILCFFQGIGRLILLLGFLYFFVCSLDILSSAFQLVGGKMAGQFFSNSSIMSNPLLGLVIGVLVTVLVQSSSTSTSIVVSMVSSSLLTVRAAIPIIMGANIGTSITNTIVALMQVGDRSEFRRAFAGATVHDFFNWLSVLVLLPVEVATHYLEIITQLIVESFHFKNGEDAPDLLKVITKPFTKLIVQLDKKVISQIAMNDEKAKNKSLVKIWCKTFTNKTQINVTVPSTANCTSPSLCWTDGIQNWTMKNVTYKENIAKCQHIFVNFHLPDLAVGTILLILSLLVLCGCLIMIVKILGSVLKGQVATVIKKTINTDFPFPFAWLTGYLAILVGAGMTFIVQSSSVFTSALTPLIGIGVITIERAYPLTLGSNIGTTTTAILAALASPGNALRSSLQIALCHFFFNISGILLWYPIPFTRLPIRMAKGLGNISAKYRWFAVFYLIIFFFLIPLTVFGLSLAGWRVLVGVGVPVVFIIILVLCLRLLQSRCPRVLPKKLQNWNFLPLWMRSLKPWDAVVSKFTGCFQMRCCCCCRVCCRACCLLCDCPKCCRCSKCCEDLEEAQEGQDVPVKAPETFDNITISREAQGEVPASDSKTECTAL
- test.description: Inhibitory effect on 33PO4 uptake into human NaPi-IIb-expressing CHO cells
- Assay type: cell-based
- applied.conditions: read-out: IC50
The entries below are paired with their reported IC50.

molecule	IC50
CSc1ccc(-c2cc(C(F)(F)F)ccc2NC(=O)C2=C(O)C3(CCCC3)N(C)N(Cc3ccc(OCCN4CCOCC4)c(F)c3F)C2=O)cn1	16.3 µM
CN(CCOc1ccc(CN2C(=O)C(C(=O)Nc3ccc(C(F)(F)F)cc3-c3cc(C(F)(F)F)ncn3)=C(O)C3(CCC3)N2C)c(F)c1F)C1CCOC1 (stereo not shown)	13.4 µM
CN1N(Cc2ccc(OCCN3CCOCC3)c(F)c2F)C(=O)C(C(=O)Nc2ccc(C(F)(F)F)cc2-c2ccc(C(F)(F)F)nc2)=C(O)C12CCC2	11.1 µM
C[C@]12CCCN1N(Cc1c(F)cccc1Cl)C(=O)C(C(=O)Nc1ccc(C(F)(F)F)cc1-c1ccc(C(F)(F)F)nc1)=C2O	1 µM
C[C@]12CCCN1N(Cc1cccc(F)c1F)C(=O)C(C(=O)Nc1ccc(Br)cc1-c1ccc(Cl)nc1)=C2O	8.6 µM
C[C@]12CCCN1N(Cc1cccc(F)c1Br)C(=O)C(C(=O)Nc1ccc(Cl)cc1F)=C2O	6.7 µM
C[C@]12CCCN1N(Cc1c(F)cc(C#CCCOC[C@H](O)CO)cc1F)C(=O)C(C(=O)Nc1ccc(C(F)(F)F)cc1-c1ccc(C(F)(F)F)nc1)=C2O	7.1 µM
